Every entry's value here was drawn from patent US20240343803A1.

- TARGET_SYSTEM: T1, Fusion protein of extracellular domain of human TIGIT and His-tag (human TIGIT ECD-his) (human)
- T1 chain: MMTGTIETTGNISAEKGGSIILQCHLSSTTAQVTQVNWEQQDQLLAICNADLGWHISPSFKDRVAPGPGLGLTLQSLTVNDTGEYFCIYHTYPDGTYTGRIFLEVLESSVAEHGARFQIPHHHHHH
- ASSAY_NAME: BIAcore; KD ratio, by the numbers to TIGIT-005-H2L1 of r33
QUANTITY_NAME: Fold change vs chimeric antibodies (KD) (fold)

INSERT INTO measurements (binder, quantity_name, uom, observed_measurement) VALUES
  ('TIGIT-005-H2L1b (antibody, V domains shown, Humanized anti-TIGIT antibody with NG-site mutation in VL) VH: EVQLVQSGAEVKKPGASVKVSCKASGYAFTNYLIEWVRQAPGQRLEWMGVINPGSGGTNYKEKFKGRVTITADKSSSTAYMELSSLRSEDTAVYYCARGEYFFFDYWGQGTTVTVSS VL: DIVMTQSPDSLAVSLGERATINCKASQHVSTGVAWYQHKPGQSPKLLIYSASYRYTGVPDRFSGSGSGTDFTLTISSLQAEDVAVYYCQQHYNTPHTFGGGTKVEIK', 'Fold change vs chimeric antibodies (KD)', 'fold', 9.89),
  ('TIGIT-005-H2L1d (antibody, V domains shown, Humanized anti-TIGIT antibody with NG-site mutation in VL) VH: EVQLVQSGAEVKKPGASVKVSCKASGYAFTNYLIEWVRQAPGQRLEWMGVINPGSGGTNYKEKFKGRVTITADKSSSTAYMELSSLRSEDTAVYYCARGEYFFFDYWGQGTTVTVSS VL: DIVMTQSPDSLAVSLGERATINCKASQHVSNAVAWYQHKPGQSPKLLIYSASYRYTGVPDRFSGSGSGTDFTLTISSLQAEDVAVYYCQQHYNTPHTFGGGTKVEIK', 'Fold change vs chimeric antibodies (KD)', 'fold', 1.21),
  ('TIGIT-005-H2L1a (antibody, V domains shown, Humanized anti-TIGIT antibody with NG-site mutation in VL) VH: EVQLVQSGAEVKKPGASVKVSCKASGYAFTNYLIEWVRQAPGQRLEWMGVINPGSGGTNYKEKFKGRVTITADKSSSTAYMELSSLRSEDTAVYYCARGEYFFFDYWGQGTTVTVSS VL: DIVMTQSPDSLAVSLGERATINCKASQHVSQGVAWYQHKPGQSPKLLIYSASYRYTGVPDRFSGSGSGTDFTLTISSLQAEDVAVYYCQQHYNTPHTFGGGTKVEIK', 'Fold change vs chimeric antibodies (KD)', 'fold', 50),
  ('TIGIT-005-H2L1c (antibody, V domains shown, Humanized anti-TIGIT antibody with NG-site mutation in VL) VH: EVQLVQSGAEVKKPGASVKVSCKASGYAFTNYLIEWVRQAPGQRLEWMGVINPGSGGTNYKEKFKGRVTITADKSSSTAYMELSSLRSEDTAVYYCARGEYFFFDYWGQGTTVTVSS VL: DIVMTQSPDSLAVSLGERATINCKASQHVSDGVAWYQHKPGQSPKLLIYSASYRYTGVPDRFSGSGSGTDFTLTISSLQAEDVAVYYCQQHYNTPHTFGGGTKVEIK', 'Fold change vs chimeric antibodies (KD)', 'fold', 2.48);
